The substances listed here are annotated with their % inhibition.
Test system: human PKK mRNA
Assay: Antisense inhibition of human PKK mRNA in HepaRG cells, 1,000 nM, MOE/deoxy/cEt oligonucleotides (Example 3)
Type: cell-based
Conditions: Table 22 experiment; HepaRG cells, electroporation with 1,000 nM antisense oligonucleotide, approx. 24 hours; PKK mRNA by RT-PCR (RTS3454), relative to untreated control cells
Strand notation (5' to 3'): a small letter for the sugar, then the base; units joined by * are phosphorothioate-linked, units joined directly phosphodiester-linked; [ ] holds rarer units or linkages, { } end groups; capitals alone tell only the bases. e = 2'-O-(2-methoxyethyl) (MOE); k = constrained ethyl (cEt); [5mC] = 5-methylcytosine; d = 2'-deoxy (DNA)

{"columns": ["substance", "% inhibition / %"],
 "data": [
  ["547900 (eT*eG*kT*dA*d[5mC]*dT*dT*dT*dA*dA*dT*dA*dG*kG*k[5mC]*eA; antisense) [compound 547900]", 68],
  ["547896 (eT*eA*kG*dG*d[5mC]*dA*dA*dT*dT*dG*dT*dT*d[5mC]*k[5mC]*kG*eG; antisense) [compound 547896]", 95],
  ["547904 (eA*e[5mC]*kT*d[5mC]*dA*dG*d[5mC]*dA*d[5mC]*d[5mC]*dT*dT*dT*kA*kT*eA; antisense) [compound 547904]", 41],
  ["547889 (eT*eT*k[5mC]*d[5mC]*dG*dG*dT*dA*d[5mC]*dT*d[5mC]*dT*dG*k[5mC]*k[5mC]*eT; antisense) [compound 547889]", 97],
  ["547869 (antisense eA*eA*k[5mC]*d[5mC]*dT*dT*dA*dG*dA*d[5mC]*dA*d[5mC]*dA*kT*kT*eA) [compound 547869]", 77],
  ["547899 (eG*eT*kA*d[5mC]*dT*dT*dT*dA*dA*dT*dA*dG*dG*k[5mC]*kA*eA; antisense) [compound 547899]", 68]
]}

---

The substances listed here are annotated with their % inhibition.
System: human PKK mRNA
Test: Antisense inhibition of human PKK mRNA in HepaRG cells, 1,000 nM, MOE/deoxy/cEt oligonucleotides (Example 3)
Type: cell-based
Settings: HepaRG cells, electroporation with 1,000 nM antisense oligonucleotide, approximately 24 hours, primer probe set RTS3454, relative to untreated control cells; experiment of Table 24
Strand notation (5' to 3'): a small letter for the sugar, then the base; units joined by * are phosphorothioate-linked, units joined directly phosphodiester-linked; [ ] holds rarer units or linkages, { } end groups; capitals alone tell only the bases. e = 2'-O-(2-methoxyethyl) (MOE); k = constrained ethyl (cEt); [5mC] = 5-methylcytosine; d = 2'-deoxy (DNA)

{"columns": ["substance", "% inhibition"],
 "data": [
  ["548022 (e[5mC]*e[5mC]*kA*d[5mC]*dT*d[5mC]*dT*d[5mC]*d[5mC]*d[5mC]*d[5mC]*dA*dA*kG*kA*eA; antisense) [compound 548022]", "69%"],
  ["548060 (e[5mC]*eT*kT*dG*dT*dG*dT*d[5mC]*dA*d[5mC]*d[5mC]*dT*dT*kT*kG*eG; antisense) [compound 548060]", "76%"],
  ["548024 (eG*e[5mC]*kT*dG*dT*d[5mC]*dA*dG*d[5mC]*dT*dT*d[5mC]*dA*k[5mC]*k[5mC]*eT; antisense) [compound 548024]", "79%"]
]}
